Numbers sourced from PubChem BioAssay.

protocol: SK-BR-3 cell growth inhibitors, pilot screen, 24 h, human (AID 572);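 note: compound exposure lasted between 18 and 24 h rather than exactly 24 h; 100% = carrier-treated control wells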
conditions_used: SK-BR-3 viability, CellTiter-Glo luminescence, at 10 µM, active compounds read low
observed_property: viability (%)
Hi! Could you send only the number? It should be in %, unit omitted.

molecule	observed_property	numeric_value
CCn1c(SCC(=O)C(C)(C)C)nnc1-c1cnccn1	viability	81

Problem: Provide one value: measured viability of CCC1(C(=O)OC)NC(c2cccc(F)c2)C2C(=O)N(C)C(=O)C21 (stereo unspecified)
Result: 91

Problem: Quote viability reported for `Cc1ccc(-c2nnc(SCC(=O)N3c4ccccc4NC(=O)C3(C)C)n2N)cc1` please.
Result: 65

Problem: Identify measured viability associated with `CCOC(=O)c1ccc(NC(=O)CSc2nnc(COc3ccccc3)n2C)cc1`
Result: 110

Problem: Give the value of viability reported for the following: CC(CC(=O)NCc1ccccc1)C1CCCO1 (stereo unspecified)
Result: 130

Problem: Complete the entry with viability for `NCCCCCc1nnc(SC/C=C/c2ccccc2)o1`
Result: 99

Problem: # return recorded viability for entry O=S(=O)(NC1CCCCC1NS(=O)(=O)c1ccc(F)cc1)c1ccc(F)cc1 (stereo unspecified)
Result: 106

Problem: Determine its reported viability: CCN1C(=O)CC(N2CCC(Nc3ccc(F)cc3)CC2)C1=O (stereo unspecified)
Result: 78

Problem: Answer with the recorded viability for the molecule listed here: CCC(C(=O)OCCN(CC)CC)c1ccccc1 (stereo unspecified)
Result: 114

Problem: Given the molecule `Cc1cc2ccccc2c(=O)n1CC(=O)Nc1ccc2c(c1)OCO2` , write its reported viability.
Result: 136

Problem: Consider the molecule `Cn1c(=O)c2c(nc(N3CCN(c4ccccc4)CC3)n2CCCc2ccccc2)n(C)c1=O` . State its measured viability.
Result: 68
